- target_under_test: DPP-IV (in situ, human intestinal Caco-2 cells) (Homo sapiens)
- Sequence (P27487 whole entry): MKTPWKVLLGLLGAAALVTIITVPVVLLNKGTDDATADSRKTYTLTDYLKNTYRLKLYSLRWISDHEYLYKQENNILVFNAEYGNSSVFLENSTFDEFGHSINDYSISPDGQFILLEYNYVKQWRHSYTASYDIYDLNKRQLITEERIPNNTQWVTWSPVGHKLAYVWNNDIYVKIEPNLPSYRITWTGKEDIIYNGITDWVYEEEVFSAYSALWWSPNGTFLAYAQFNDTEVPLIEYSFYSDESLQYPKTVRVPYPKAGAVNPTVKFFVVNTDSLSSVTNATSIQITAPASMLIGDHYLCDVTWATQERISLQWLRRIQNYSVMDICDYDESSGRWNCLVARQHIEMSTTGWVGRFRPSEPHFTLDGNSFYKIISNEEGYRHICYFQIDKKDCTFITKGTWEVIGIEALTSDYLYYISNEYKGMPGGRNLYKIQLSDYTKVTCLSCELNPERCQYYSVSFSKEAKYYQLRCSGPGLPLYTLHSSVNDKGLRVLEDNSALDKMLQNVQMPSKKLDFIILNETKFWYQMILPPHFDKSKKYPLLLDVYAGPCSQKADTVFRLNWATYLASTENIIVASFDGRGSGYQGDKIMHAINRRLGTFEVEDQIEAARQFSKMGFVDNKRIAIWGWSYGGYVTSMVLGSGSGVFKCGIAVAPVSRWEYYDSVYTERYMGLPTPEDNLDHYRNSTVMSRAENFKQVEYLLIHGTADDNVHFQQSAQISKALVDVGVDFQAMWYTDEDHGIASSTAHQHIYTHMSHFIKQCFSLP
- assay_procedure: In situ DPP-IV activity assay on 2-, 4- and 6-day Caco-2 cells (Gly-Pro-AMC)
pIC50: −log10 of the molar value. No end group written: not given here.
Overview of reported pIC50 across a group of sequences:
reported_metric: pIC50

[[record]]
macromolecule_sequence = "LTFPGSAED [Lup1]"
endpoint_value = 3.68

[[record]]
macromolecule_sequence = "IAVPTGVA [Soy1]"
endpoint_value = 3.65

